- system: human endoplasmic reticulum aminopeptidase 1 (rHsERAP1) (Homo sapiens)
- Sequence (Q9NZ08 whole entry): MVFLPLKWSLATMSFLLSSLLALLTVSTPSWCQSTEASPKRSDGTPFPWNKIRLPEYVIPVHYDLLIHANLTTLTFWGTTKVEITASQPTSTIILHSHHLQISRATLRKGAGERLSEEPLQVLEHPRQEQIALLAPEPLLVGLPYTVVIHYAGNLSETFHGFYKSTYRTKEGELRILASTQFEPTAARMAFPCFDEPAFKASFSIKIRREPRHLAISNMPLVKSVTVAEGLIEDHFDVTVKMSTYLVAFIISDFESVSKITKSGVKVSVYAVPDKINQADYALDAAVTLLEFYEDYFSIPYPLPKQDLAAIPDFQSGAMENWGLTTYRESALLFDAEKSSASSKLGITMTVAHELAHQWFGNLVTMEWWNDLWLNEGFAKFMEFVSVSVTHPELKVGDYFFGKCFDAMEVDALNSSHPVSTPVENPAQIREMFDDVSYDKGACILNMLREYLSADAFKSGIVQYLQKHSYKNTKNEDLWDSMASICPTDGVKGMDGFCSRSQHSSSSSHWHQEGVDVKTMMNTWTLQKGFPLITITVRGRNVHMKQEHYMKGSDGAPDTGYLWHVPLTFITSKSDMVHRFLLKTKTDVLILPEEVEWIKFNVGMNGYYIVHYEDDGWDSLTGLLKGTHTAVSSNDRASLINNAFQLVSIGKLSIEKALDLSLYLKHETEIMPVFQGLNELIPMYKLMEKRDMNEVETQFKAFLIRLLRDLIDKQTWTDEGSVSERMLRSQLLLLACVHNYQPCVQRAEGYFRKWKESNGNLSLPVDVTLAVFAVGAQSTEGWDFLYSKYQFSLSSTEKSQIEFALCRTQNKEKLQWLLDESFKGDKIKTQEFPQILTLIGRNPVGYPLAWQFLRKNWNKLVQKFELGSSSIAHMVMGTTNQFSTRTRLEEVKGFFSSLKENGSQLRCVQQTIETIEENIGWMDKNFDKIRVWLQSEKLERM
Strictly below 60 µM in IC50: TRUE. Otherwise: FALSE.

- compound: "NC1CCc2c(Br)ccc(-c3ccccc3)c2CC1=O (centres unmarked) [21i]"
  label value: "TRUE"
- compound: "NC1CCc2c(cccc2-c2ccccc2)CC1=O (centres unmarked) [21f]"
  label value: "FALSE"
- compound: "NC1CCc2c(Br)cccc2CC1=O (centres unmarked) [21e]"
  label value: "TRUE"
- compound: "NC1CCc2cccc(-c3ccccc3)c2CC1=O (centres unmarked) [21c]"
  label value: "FALSE"
- compound: "NC1CCc2cccc(Br)c2CC1=O (centres unmarked) [21b]"
  label value: "FALSE"

====

List of IC50 values.
- system: human Leucyl-cystinyl aminopeptidase (rHsIRAP) (Homo sapiens, UniProt Q9UIQ6)
- Construct: made in house; host or cells: Hi5 insect cells (baculovirus produced in sf9)
- Sequence (Q9UIQ6 155-1025 limits assumed): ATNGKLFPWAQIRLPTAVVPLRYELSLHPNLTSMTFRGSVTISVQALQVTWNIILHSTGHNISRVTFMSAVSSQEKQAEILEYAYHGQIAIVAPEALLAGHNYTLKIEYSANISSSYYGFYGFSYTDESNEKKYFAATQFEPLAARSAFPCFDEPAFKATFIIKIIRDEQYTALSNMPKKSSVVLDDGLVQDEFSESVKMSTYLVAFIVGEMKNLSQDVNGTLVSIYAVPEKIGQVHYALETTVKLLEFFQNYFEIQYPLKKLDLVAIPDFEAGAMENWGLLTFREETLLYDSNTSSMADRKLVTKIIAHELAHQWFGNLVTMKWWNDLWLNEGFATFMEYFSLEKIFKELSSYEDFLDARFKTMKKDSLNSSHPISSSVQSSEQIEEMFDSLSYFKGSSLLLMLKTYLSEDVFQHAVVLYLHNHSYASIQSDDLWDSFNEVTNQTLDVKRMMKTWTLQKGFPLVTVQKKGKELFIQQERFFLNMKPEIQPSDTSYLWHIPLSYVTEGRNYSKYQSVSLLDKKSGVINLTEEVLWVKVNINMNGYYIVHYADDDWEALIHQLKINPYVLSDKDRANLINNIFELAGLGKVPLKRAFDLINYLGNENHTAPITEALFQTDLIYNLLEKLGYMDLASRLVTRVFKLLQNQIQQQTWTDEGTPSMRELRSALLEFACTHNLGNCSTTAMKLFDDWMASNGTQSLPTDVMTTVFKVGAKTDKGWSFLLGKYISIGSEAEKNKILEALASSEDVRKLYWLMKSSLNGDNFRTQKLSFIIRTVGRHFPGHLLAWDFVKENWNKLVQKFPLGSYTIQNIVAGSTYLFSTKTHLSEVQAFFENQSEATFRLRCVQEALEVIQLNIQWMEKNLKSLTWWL
- assay notes: rHsIRAP inhibition, L-AMC fluorigenic substrate
- Assay type: biochemical
- condition description: 50 µM L-AMC; read-out: IC50 rHsIRAP
endpoint label: IC50 (nM)

- compound: "NC1CCc2c(Br)cccc2CC1=O (stereo not drawn) [21e]"
  system: "human Leucyl-cystinyl aminopeptidase (rHsIRAP) (Homo sapiens, UniProt Q9UIQ6)"
  endpoint label: "IC50"
  u: "nM"
  test value: 2600
- compound: "NC1CCc2cccc(Br)c2CC1=O (stereo not drawn) [21b]"
  system: "human Leucyl-cystinyl aminopeptidase (rHsIRAP) (Homo sapiens, UniProt Q9UIQ6)"
  endpoint label: "IC50"
  u: "nM"
  test value: 1000
- compound: "NC1CCc2c(cccc2-c2ccccc2)CC1=O (stereo not drawn) [21f]"
  system: "human Leucyl-cystinyl aminopeptidase (rHsIRAP) (Homo sapiens, UniProt Q9UIQ6)"
  endpoint label: "IC50"
  u: "nM"
  test value: 2200

====

- system: human puromycine sensitive aminopeptidase (rHsPSA) (Homo sapiens)
- Sequence (P55786 whole entry): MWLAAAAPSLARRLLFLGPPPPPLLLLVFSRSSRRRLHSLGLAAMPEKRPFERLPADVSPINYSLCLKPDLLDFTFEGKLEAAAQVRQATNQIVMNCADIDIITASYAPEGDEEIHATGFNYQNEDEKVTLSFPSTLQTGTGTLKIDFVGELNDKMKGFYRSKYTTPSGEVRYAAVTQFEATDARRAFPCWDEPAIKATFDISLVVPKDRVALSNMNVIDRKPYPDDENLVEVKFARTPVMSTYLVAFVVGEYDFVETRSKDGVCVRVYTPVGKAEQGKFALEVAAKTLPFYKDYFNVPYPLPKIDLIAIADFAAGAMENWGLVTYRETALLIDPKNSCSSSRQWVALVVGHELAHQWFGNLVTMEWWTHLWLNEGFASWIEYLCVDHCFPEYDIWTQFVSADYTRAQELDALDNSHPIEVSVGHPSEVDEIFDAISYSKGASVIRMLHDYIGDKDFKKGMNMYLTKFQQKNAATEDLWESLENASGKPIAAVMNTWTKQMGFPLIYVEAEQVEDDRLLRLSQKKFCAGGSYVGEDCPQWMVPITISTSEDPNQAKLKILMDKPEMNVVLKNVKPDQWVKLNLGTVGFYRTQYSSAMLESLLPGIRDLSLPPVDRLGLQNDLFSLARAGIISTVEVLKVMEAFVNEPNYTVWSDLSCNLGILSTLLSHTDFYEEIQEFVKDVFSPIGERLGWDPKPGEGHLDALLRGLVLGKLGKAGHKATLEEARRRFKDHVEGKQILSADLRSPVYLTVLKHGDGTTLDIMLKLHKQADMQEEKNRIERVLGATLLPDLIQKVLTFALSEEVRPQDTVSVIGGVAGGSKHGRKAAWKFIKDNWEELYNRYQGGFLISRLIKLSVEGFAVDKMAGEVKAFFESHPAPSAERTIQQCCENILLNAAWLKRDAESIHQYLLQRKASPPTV

- molecule: "NC1CCc2cccc(Br)c2CC1=O (stereo not shown) [21b]"
  system: "human puromycine sensitive aminopeptidase (rHsPSA) (Homo sapiens)"
  Ki [nM]: 1630
- molecule: "NC1CCc2c(Br)cccc2CC1=O (stereo not shown) [21e]"
  system: "human puromycine sensitive aminopeptidase (rHsPSA) (Homo sapiens)"
  Ki [nM]: 1070
- molecule: "NC1CCc2c(Br)ccc(-c3ccccc3)c2CC1=O (stereo not shown) [21i]"
  system: "human puromycine sensitive aminopeptidase (rHsPSA) (Homo sapiens)"
  Ki [nM]: 21
- molecule: "NC1CCc2cccc(-c3ccccc3)c2CC1=O (stereo not shown) [21c]"
  system: "human puromycine sensitive aminopeptidase (rHsPSA) (Homo sapiens)"
  Ki [nM]: 50

====

- system: UniProt Q9UIQ6

- compound: "NC1CCc2c(Br)ccc(Br)c2CC1=O (stereo not shown) [21h]"
  system: "UniProt Q9UIQ6"
  Ki / nM: 34

====

List of pIC50 values.
- system: human endoplasmic reticulum aminopeptidase 2 (rHsERAP2) (Homo sapiens)
- Construct: made in house; host or cells: Hi5 insect cells (baculovirus produced in sf9)
- Sequence (Q6P179 whole entry): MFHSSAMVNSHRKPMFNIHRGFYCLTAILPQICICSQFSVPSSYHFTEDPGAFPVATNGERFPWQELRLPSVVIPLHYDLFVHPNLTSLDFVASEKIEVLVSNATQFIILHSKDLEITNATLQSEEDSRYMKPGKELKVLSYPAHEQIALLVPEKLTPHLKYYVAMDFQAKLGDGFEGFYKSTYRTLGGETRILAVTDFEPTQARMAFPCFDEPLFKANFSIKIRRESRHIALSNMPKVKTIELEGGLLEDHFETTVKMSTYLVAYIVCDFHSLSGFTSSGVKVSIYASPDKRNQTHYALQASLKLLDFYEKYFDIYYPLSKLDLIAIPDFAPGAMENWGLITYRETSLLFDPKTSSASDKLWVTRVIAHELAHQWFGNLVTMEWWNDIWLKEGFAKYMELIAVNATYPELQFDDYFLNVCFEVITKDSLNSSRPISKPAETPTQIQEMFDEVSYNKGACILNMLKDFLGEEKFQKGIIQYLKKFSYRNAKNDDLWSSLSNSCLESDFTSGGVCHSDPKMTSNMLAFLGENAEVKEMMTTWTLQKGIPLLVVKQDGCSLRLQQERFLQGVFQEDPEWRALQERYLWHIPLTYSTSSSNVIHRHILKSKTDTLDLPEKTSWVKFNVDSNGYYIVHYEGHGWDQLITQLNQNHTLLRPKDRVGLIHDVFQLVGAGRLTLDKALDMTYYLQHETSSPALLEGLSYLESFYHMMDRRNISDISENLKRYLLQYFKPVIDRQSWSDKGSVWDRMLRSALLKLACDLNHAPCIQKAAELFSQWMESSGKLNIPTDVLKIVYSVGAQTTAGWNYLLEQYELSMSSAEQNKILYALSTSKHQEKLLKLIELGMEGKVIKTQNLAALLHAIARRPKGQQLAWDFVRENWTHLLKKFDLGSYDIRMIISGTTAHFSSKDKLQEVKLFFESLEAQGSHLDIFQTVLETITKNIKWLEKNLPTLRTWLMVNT
- assay notes: rHsERAP2 inhibition, R-AMC fluorigenic substrate
- Type: biochemical
- condition description: 50 µM R-AMC
pIC50: −log10 of the molar value.
endpoint label: pIC50

- molecule: "NC1CCc2cccc(Br)c2CC1=O (centres unmarked) [21b]"
  readout relation: "="
  test value: 4.31
- molecule: "NC1CCc2c(cccc2-c2ccccc2)CC1=O (centres unmarked) [21f]"
  readout relation: "<"
  test value: 3.70
- molecule: "NC1CCc2cccc(-c3ccccc3)c2CC1=O (centres unmarked) [21c]"
  readout relation: "="
  test value: 4.74
- molecule: "NC1CCc2c(Br)cccc2CC1=O (centres unmarked) [21e]"
  readout relation: "="
  test value: 3.98
- molecule: "NC1CCc2c(Br)ccc(-c3ccccc3)c2CC1=O (centres unmarked) [21i]"
  readout relation: "="
  test value: 6.41
